SYSTEM UNDER TEST: KRAS G13D (Homo sapiens, UniProt P01116+P62937, G13D)
Sequence (P01116 1-169 isoform P01116-2 G13D limits assumed): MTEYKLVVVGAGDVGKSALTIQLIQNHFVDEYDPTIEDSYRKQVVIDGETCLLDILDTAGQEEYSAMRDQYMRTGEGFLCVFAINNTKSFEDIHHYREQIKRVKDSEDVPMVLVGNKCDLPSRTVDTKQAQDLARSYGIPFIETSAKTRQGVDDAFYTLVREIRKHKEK
Sequence (P62937 whole entry): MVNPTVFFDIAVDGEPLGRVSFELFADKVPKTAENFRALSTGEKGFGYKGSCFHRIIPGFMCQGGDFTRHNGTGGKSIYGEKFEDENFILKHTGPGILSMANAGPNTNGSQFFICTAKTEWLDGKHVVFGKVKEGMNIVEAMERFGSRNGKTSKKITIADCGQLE
PROTOCOL NOTES: Ras-Raf disruption / FRET / MOA assay (BRAF RBD)
Assay type: biochemical
RECORDED CONDITIONS: KRAS G13D FRET data IC50, Ras-Raf disruption, with Cyclophilin A
Collected IC50 values appear next to each entry.

Some solved entries appear below for comparison.
Summary for this molecule, CCn1c(-c2cccnc2[C@H](C)OC)c2c3cc(ccc31)-c1cc(O)cc(c1)C[C@H](NC(=O)[C@H](C1CCCC1)N(C)C(=O)CN(C)C(=O)[C@H]1N[C@H]1C1(F)CC1)C(=O)N1CCC[C@H](N1)C(=O)OCC(C)(C)C2 [Example 315] : IC50 is 10 to 100 nM

Summary for this molecule, CCn1c(-c2cccnc2[C@H](C)OC)c2c3cc(ccc31)-c1cc(O)cc(c1)C[C@H](NC(=O)[C@H](C(C)C)N(C)C(=O)[C@H]1CCN1C(=O)[C@@H]1CN1)C(=O)N1CCC[C@H](N1)C(=O)OCC(C)(C)C2 [Example 157] : IC50 is 10 to 100 nM

Summary for this molecule, CCn1c(-c2cccnc2[C@H](C)OC)c2c3cc(ccc31)-c1cc(O)cc(c1)C[C@H](NC(=O)[C@H](C(C)C)N(C)C(=O)CN(C)C(=O)[C@@H]1CN1CCOC)C(=O)N1CCC[C@H](N1)C(=O)OCC(C)(C)C2 (stereo partly shown) [Example 160] : IC50 is 100 to 1000 nM

Summary for this molecule, CCn1c(-c2cccnc2[C@H](C)OC)c2c3cc(ccc31)-c1cc(O)cc(c1)C[C@H](NC(=O)[C@H](C1CCCC1)N(C)C(=O)CN(C)C(=O)[C@@H]1N[C@@H]1C1(F)CC1)C(=O)N1CCC[C@H](N1)C(=O)OCC(C)(C)C2 [Example 314] : IC50 is 10 to 100 nM

Summary for this molecule, CCn1c(-c2cccnc2[C@H](C)OC)c2c3cc(ccc31)-c1cc(O)cc(c1)C[C@H](NC(=O)[C@H](C(C)C)N(C)C(=O)[C@@H](C)N(C)C(=O)[C@H]1CN1)C(=O)N1CCC[C@H](N1)C(=O)OCC(C)(C)C2 [Example 114] : IC50 is 1000 to 10000 nM

***
Summary for this molecule, CCn1c(-c2cccnc2[C@H](C)OC)c2c3cc(ccc31)-c1cc(O)cc(c1)C[C@H](NC(=O)[C@H](C(C)C)N1CC[C@@H](NC(=O)[C@@H]3CN3)C1=O)C(=O)N1CCC[C@H](N1)C(=O)OCC(C)(C)C2 [Example 129] : IC50 is 10 to 100 nM

Summary for this molecule, CCn1c(-c2cccnc2[C@H](C)OC)c2c3cc(ccc31)-c1cc(O)cc(c1)C[C@H](NC(=O)[C@H](C(C)C)N(C)C(=O)CN(C)C(=O)[C@H]1CN1CC1COC1)C(=O)N1CCC[C@H](N1)C(=O)OCC(C)(C)C2 (stereo partly shown) [Example 277] : IC50 is 100 to 1000 nM

Summary for this molecule, CCn1c(-c2cccnc2[C@H](C)OC)c2c3cc(ccc31)-c1cc(O)cc(c1)C[C@H](NC(=O)[C@H](C(C)C)N(C)C(=O)CN(C)C(=O)[C@H]1CN1CCO)C(=O)N1CCC[C@H](N1)C(=O)OCC(C)(C)C2 (stereo partly shown) [Example 161] : IC50 is 100 to 1000 nM

Summary for this molecule, CCn1c(-c2cccnc2[C@H](C)OC)c2c3cc(ccc31)-c1cc(O)cc(c1)C[C@H](NC(=O)[C@H](C(C)C)N(C)C(=O)CNC(=O)[C@@H]1N[C@@H]1C1CC1)C(=O)N1CCC[C@H](N1)C(=O)OCC(C)(C)C2 [Example 141] : IC50 is 100 to 1000 nM

Summary for this molecule, CCn1c(-c2cccnc2[C@H](C)OC)c2c3cc(ccc31)-c1cc(O)cc(c1)C[C@H](NC(=O)[C@H](C(C)C)N(C)C(=O)CN(C)C(=O)[C@H]1CN1CCCC#N)C(=O)N1CCC[C@H](N1)C(=O)OCC(C)(C)C2 (stereo partly shown) [Example 273] : IC50 is 100 to 1000 nM

Summary for this molecule, CCn1c(-c2cccnc2[C@H](C)OC)c2c3cc(ccc31)-c1cc(O)cc(c1)C[C@H](NC(=O)[C@H](C1CCCC1)N(C)C(=O)CN(C)C(=O)[C@H]1CN1)C(=O)N1CCC[C@H](N1)C(=O)OCC(C)(C)C2 [Example 95] : IC50 is 10 to 100 nM

* * *

SYSTEM UNDER TEST: KRAS G13D (Homo sapiens, UniProt P01116+P62937, G13D)
PROTOCOL NOTES: Disruption of BRAF RBD interaction with Ras (FRET / MOA assay, with Cyclophilin A)
Type: biochemical
RECORDED CONDITIONS: KRAS G13D; read-out: KRAS G13D FRET data IC50
Text: This protocol may also be executed substituting other Ras proteins or nucleotides. The purpose of this biochemical assay was to measure the ability of test compounds to facilitate ternary complex formation between a nucleotide-loaded K-Ras isoform and Cyclophilin A; the resulting ternary complex disrupts binding to a BRAF^RBD construct, inhibiting K-Ras signaling through a RAF effector. Data is reported as IC50 values. […]
pIC50: −log10 of the molar value.
Collected pIC50 values appear next to each entry.

Summary for this compound, C=CC(=O)N1CC[C@H](C(=O)N(C)[C@H](C(=O)N[C@H]2Cc3cccc(c3)-c3ccc4c(c3)c(c(-c3cc(CN(C)C)cnc3[C@H](C)OC)n4CC)CC(C)(C)COC(=O)[C@@H]3CCCN(N3)C2=O)C(C)C)C1 [Example A523] : pIC50 is < 5.00

***
Summary for this compound, CCn1c(-c2cc(C3CCN(C)CC3)cnc2[C@H](C)OC)c2c3cc(ccc31)-c1csc(n1)C[C@H](NC(=O)[C@H](C(C)C)N(C)C(=O)N(C)C)C(=O)N1CCC[C@H](N1)C(=O)OCC(C)(C)C2 (atropisomer, axis not shown) [Example A484] : pIC50 is 6.00 to 7.00

Summary for this compound, CCn1c(-c2cccnc2[C@H](C)OC)c2c3cc(ccc31)-c1cc(O)cc(c1)C[C@H](NC(=O)[C@H](C(C)C)N(C)C(=O)[C@@H]1C[C@H]1C)C(=O)N1CCC[C@H](N1)C(=O)OCC(C)(C)C2 [Example A147] : pIC50 is 6.00 to 7.00

Summary for this compound, CCn1c(-c2cccnc2[C@H](C)OC)c2c3cc(ccc31)-c1cc(O)cc(c1)C[C@H](NC(=O)[C@H](C1CCCC1)N(C)C(=O)N1CCS(=O)(=NC)CC1)C(=O)N1CCC[C@H](N1)C(=O)OCC(C)(C)C2 [Example A426] : pIC50 is 7.00 to 8.00

Summary for this compound, CCn1c(-c2cccnc2[C@H](C)OC)c2c3cc(ccc31)-c1csc(n1)C[C@H](NC(=O)[C@H](C(C)C)N(C)C(=O)N1CC3(CC(N(C)C)C3)C1)C(=O)N1CCC[C@H](N1)C(=O)OCC(C)(C)C2 (atropisomer, axis not shown) [Example A280] : pIC50 is 6.00 to 7.00

Summary for this compound, CCn1c(-c2cccnc2[C@H](C)OC)c2c3cc(ccc31)-c1cccc(c1)C[C@H](NC(=O)[C@H](C(C)C)N(C)C(=O)N1CCC13CN(C(=O)C#CC(C)(C)N(C)C)C3)C(=O)N1CCC[C@H](N1)C(=O)OCC(C)(C)C2 (atropisomer, axis not shown) [Example A717] : pIC50 is 5.00 to 6.00

Summary for this compound, CCn1c(-c2cccnc2[C@H](C)OC)c2c3cc(ccc31)-c1csc(n1)C[C@H](NC(=O)[C@H](C(C)C)N(C)C(=O)N1CC[C@@H](N(C)C)C1)C(=O)N1CCC[C@H](N1)C(=O)OCC(C)(C)C2 (atropisomer, axis not shown) [Example A566] : pIC50 is 6.00 to 7.00

Summary for this compound, C=CC(=O)N1CC2(CCN2C(=O)N(C)[C@H](C(=O)N[C@H]2Cc3nc(n(C)n3)-c3ccc4c(c3)c(c(-c3cccnc3[C@H](C)OC)n4CC)CC(C)(C)COC(=O)C3CCCN(N3)C2=O)C(C)C)C1 (stereo partly shown) [Example A612] : pIC50 is 6.00 to 7.00

Summary for this compound, CCn1c(-c2cccnc2COC)c2c3cc(ccc31)-c1cc(O)cc(c1)C[C@H](NC(=O)[C@H](C(C)C)N(C)C(=O)[C@H]1CCN(C(=O)/C=C\CN(C)C)C1)C(=O)N1CCC[C@H](N1)C(=O)OCC(C)(C)C2 [Example A164] : pIC50 is 6.00 to 7.00

Summary for this compound, CCn1c(-c2cccnc2[C@H](C)OC)c2c3cc(ccc31)-c1cc(O)cc(c1)C[C@H](NC(=O)[C@H](C(C)C)N(C)C(=O)[C@H]1CCN(C(=O)OC(C)(C)C)C1)C(=O)N1CCC[C@H](N1)C(=O)OCC(C)(C)C2 [Example A233] : pIC50 is 6.00 to 7.00

Data provenance is patent US20230233569A1.
